- tgt: Met (Homo sapiens)
- Sequence (P08581 25-1390): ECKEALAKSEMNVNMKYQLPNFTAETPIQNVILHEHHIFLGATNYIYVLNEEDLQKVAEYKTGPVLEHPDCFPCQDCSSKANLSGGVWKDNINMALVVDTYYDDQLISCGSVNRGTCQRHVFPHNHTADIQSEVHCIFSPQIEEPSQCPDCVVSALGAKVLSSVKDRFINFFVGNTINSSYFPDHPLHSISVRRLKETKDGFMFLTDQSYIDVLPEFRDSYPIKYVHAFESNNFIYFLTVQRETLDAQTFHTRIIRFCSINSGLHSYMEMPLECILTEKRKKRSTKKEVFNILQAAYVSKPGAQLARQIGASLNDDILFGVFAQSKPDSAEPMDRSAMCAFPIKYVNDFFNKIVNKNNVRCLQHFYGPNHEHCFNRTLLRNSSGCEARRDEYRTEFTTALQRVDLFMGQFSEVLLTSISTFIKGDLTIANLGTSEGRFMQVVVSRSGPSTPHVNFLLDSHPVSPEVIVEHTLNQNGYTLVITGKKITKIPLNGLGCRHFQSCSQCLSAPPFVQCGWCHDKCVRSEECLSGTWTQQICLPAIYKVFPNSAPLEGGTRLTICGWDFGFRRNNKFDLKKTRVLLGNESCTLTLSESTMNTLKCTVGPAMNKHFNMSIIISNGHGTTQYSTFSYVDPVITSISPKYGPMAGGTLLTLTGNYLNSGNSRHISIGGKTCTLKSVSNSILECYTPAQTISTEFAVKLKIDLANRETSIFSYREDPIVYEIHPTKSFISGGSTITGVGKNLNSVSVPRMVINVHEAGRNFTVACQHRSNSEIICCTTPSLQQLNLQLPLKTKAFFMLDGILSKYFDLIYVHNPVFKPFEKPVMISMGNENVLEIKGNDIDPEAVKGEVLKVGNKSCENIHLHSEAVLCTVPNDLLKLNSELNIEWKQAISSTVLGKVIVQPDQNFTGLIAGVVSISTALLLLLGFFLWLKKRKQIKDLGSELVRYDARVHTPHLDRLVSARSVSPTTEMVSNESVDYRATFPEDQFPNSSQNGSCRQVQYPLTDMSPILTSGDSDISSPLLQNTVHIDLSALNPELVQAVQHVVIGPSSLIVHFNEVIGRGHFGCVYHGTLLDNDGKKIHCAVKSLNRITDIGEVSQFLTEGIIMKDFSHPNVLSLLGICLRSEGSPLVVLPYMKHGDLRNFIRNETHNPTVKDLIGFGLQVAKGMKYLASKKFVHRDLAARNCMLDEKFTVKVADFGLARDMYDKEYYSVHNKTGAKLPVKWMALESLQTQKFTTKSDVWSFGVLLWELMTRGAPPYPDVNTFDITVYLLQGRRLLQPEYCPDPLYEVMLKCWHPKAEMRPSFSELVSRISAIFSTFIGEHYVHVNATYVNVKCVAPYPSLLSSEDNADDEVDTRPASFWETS
experimental readout: Kd

- smiles: "CCOc1cn(CCOC)nc1C(=O)Nc1ccc(Oc2ccnc3cc(OC)c(OC)cc23)cn1"
  Kd: "< 100 nM"
- smiles: "CCOc1cn(-c2ccc(OC)cc2)nc1C(=O)Nc1ccc(Oc2ccnc3cc(OC)c(OC)cc23)cn1"
  Kd: "< 100 nM"
- smiles: "CCOc1cn(-c2cncs2)nc1C(=O)Nc1ccc(Oc2ccnc3cc(OC)c(OC)cc23)cn1"
  Kd: "< 100 nM"

Below is a list of compounds. For each, state its recorded Kd.
1. CCOc1cnn(-c2ccsc2)c1C(=O)Nc1ccc(Oc2ccnc3cc(OC)c(OC)cc23)cn1
2. CCOc1cn(-c2ccc(F)c(CN(C)C)c2)nc1C(=O)Nc1ccc(Oc2ccnc3cc(OC)c(OC)cc23)cn1
3. COc1cc2nccc(Oc3ccc(NC(=O)c4nn(-c5cnc(N)nc5)cc4OCC(F)(F)F)c(F)c3)c2cc1OC
4. CCOc1cn(-c2cncnc2N2CCCC2)nc1C(=O)Nc1ccc(Oc2ccnc3cc(OC)c(OC)cc23)cn1

1: 100 to 1000 nM; 2: < 100 nM; 3: < 100 nM; 4: ≥ 1000 nM

Write down Kd measured for item COc1cc2nccc(Oc3ccc(NC(=O)c4nn(-c5ccc(F)cc5-c5ccccc5)cc4OCC4CC4)nc3)c2cc1OC 100 to 1000 nM
